Below: a set of entries, each annotated with reported MIC.
test system: Streptococcus equinus; assay: Minimum inhibitory activity against Streptococcus bovis A-5169; type: functional
Attribute Measured: MIC

1) CC[C@H]1OC(=O)[C@H](C)[C@@H](OC(=O)N2C(=O)OC[C@@H]2C)[C@H](C)[C@@H](OC2O[C@H](C)C[C@H](N(CC3CC3)CC3CC3)[C@H]2O)[C@@](C)(OC)C[C@@H](C)C(=O)[C@H](C)[C@H]2N(CCc3ccc(Cl)c(Cl)c3)C(=O)O[C@]12C (some centres not stated)	50 µg/mL
2) CC[C@H]1OC(=O)[C@H](C)[C@@H](OC2C[C@@](C)(OC)[C@@H](O)[C@H](C)O2)[C@H](C)[C@@H](OC2O[C@H](C)C[C@H](N(C)C)[C@H]2O)[C@@](C)(OC)C[C@@H](C)C(=O)[C@H](C)[C@H]2N(CCc3ccc(Cl)cc3)C(=O)O[C@]12C (some centres not stated)	0.2 µg/mL
3) CC[C@H]1OC(=O)[C@H](C)[C@@H](OC(=O)N2C(=O)OC[C@@H]2C)[C@H](C)[C@@H](O[C@@H]2O[C@H](C)C[C@H](N(C)CC3CC3)[C@H]2O)[C@@](C)(OC)C[C@@H](C)C(=O)[C@H](C)[C@H]2N(CCc3ccc(Cl)c(Cl)c3)C(=O)O[C@]12C	0.78 µg/mL
4) CC[C@H]1OC(=O)[C@H](C)[C@@H](OC(=O)N2C(=O)OC[C@@H]2C)[C@H](C)[C@@H](OC2O[C@H](C)C[C@H](N(C)CC3CC3)[C@H]2O)[C@@](C)(OC)C[C@@H](C)C(=O)[C@H](C)[C@H]2N(CCc3ccc(F)c(Cl)c3)C(=O)O[C@]12C (some centres not stated)	0.39 µg/mL
5) CC[C@H]1OC(=O)[C@H](C)[C@@H](OC(=O)N2C(=O)OC[C@@H]2C)[C@H](C)[C@@H](OC2O[C@H](C)C[C@H](N(C)C3CCCC3)[C@H]2O)[C@@](C)(OC)C[C@@H](C)C(=O)[C@H](C)[C@H]2N(CCc3ccc(Cl)cc3)C(=O)O[C@]12C (some centres not stated)	3.1 µg/mL
6) CC[C@H]1OC(=O)[C@H](C)[C@@H](OC2C[C@@](C)(OC)[C@@H](O)[C@H](C)O2)[C@H](C)[C@@H](OC2O[C@H](C)C[C@H](N(C)C3CCCC3)[C@H]2O)[C@@](C)(OC)C[C@@H](C)C(=O)[C@H](C)[C@H]2N(CCc3ccc(Cl)c(Cl)c3)C(=O)O[C@]12C (some centres not stated)	3.1 µg/mL
7) CC[C@H]1OC(=O)[C@H](C)[C@@H](O[C@H]2C[C@@](C)(OC)[C@@H](O)[C@H](C)O2)[C@H](C)[C@@H](O[C@@H]2O[C@H](C)C[C@H](N(C)C)[C@H]2O)[C@](C)(O)C[C@@H](C)C(=O)[C@H](C)[C@@H](O)[C@]1(C)O	0.05 µg/mL
